System: UO-31 renal
experiment summary: NCI-60 one-dose screen, 48 h (100 = growth as untreated, 0 = no growth, -100 = all killed)
reported conditions: 10 µM unless noted
Compounds without any hit were thinned out: in the full panel of roughly 83,000, 20% have a hit.
Listed below: growth values for each entry.

molecule	target desc	growth / %
CCNC(=NCCCN(C)C)N/C(N)=N/c1nc2ccccc2s1	UO-31 renal	64.3
O=C1Nc2cc(OC(F)(F)F)ccc2Oc2ccc(-c3ccnc(N4CCNCC4)c3)cc21	UO-31 renal	1.72
CCc1ccc(NC(=O)N[C@@H](Cc2cccc(F)c2)C(=O)N[C@@H]2C(=O)N3CCC[C@H]3C(=O)N3CCCC[C@H]3C(=O)N[C@@H](CO)C(=O)N3C[C@H](C)C[C@H]3C(=O)O[C@H]2C)c(F)c1	UO-31 renal	29.4
CC(C)C[C@H]1C(=O)O[C@H](C(C)C)C(=O)N(C)[C@@H](C(C)C)C(=O)O[C@H](C(C)C)C(=O)N(C)[C@@H](C(C)C)C(=O)O[C@H](C(C)C)C(=O)N1C	UO-31 renal	-9.26
Clc1ccc(-c2nc3ccc(/C(=N\N=C\c4ccccc4)c4ccccc4)cc3[nH]2)cc1	UO-31 renal	83.3
CC1CCc2c(sc3nc(SCC(=O)N/N=C/c4cccc(O)c4O)n(-c4ccccc4)c(=O)c23)C1 (stereo not drawn)	UO-31 renal	73.2
N#Cc1ccc(S(=O)(=O)Nc2ccc(-c3cnc(N)[nH]3)cc2)cc1	UO-31 renal	89.7
O=C(CN1CCN(c2cc(=O)n(-c3ccccc3)c3ccccc23)CC1)Nc1ccc([N+](=O)[O-])cc1	UO-31 renal	62

---

Tested on: SNB-19 CNS
experiment summary: NCI-60 one-dose screen, 48 h
reported conditions: 10 µM unless noted
This is part of a sample that, as a whole, favours compounds with a hit. Of some 83,000 tested, about 20% had one in any assay. The source made the active and inactive calls. How the source made its calls: active means growth percent below 10; inactive means the rest.
Possible outcomes: active, inactive

> print(dat)
                         compound.structure  classification
1  CCOC(=O)c1c(NCC(=O)Nc2cccc([N+](=O)[O-])c2)sc2c1CCCC2          active
2  Cn1c2ccccc2c2c3c(c4c5ccc(Br)cc5oc4c21)C(=O)N(O)C3=O        inactive
3  O=C(NCCCNc1cc(-c2cn(-c3ccccc3)nc2-c2cccc(O)c2)ccn1)Nc1cc(C(F)(F)F)cc(C(F)(F)F)c1        inactive
4  CSc1nccc(-c2c(-c3ccc(F)c(OCc4ccc(F)cc4)c3)nc3sccn23)n1        inactive
5  O=C(O)CNS(=O)(=O)c1ccc(Oc2ccc(S(=O)(=O)NCC(=O)O)cc2)cc1        inactive

---

System: UACC-257 melanoma
experiment summary: NCI-60 one-dose screen, 48 h (100 = growth as untreated, 0 = no growth, -100 = all killed)
reported conditions: 10 µM
About 83,000 compounds went through this panel and 20% of them were active in at least one assay; those are over-represented in the sample as a whole.
endpoint label: growth (%)

> print(dat)
                                    compound  measured
 1  O=C(NNc1nc2cc(F)cc(F)c2n2cccc12)c1ncccn1      12.9
 2           CN1C(=O)/C(=C/C=C/c2ccco2)SC1=S      88.1
 3  COc1ccc(N2C(=O)c3cc(OC)c(OC)cc3NC2SCc2ccccc2)cc1 (stereo not given)       105
 4  O=C(NCCCCCCNC(=O)c1c2c(nc3ccccc13)-c1cccnc1SC2)c1c2c(nc3ccccc13)-c1cccnc1SC2      17.1
 5  O=C(Nc1cc(Cl)cc(Cl)c1)Nc1ccc2oc(=O)ccc2c1      23.4
 6  COc1ccc(OC)c([C@H]2c3[nH]c4ccccc4c3C[C@H]3C(=O)N(CCCCCCC(=O)NO)CC(=O)N23)c1      67.2
 7  Cn1cc(-c2nnc(N)nc2-c2cn(C)c3ccc(F)cc23)c2cc(F)ccc21       101
 8  C/C(Cc1ccc(Cl)cc1)=C(/c1ccccc1)c1ccc(OCCN)cc1       106
 9  COc1ccc(N2CCN(C(=O)CSc3ccc(-c4nc5cc(C)c(C)cc5[nH]4)cn3)CC2)cc1      52.1
10  CCOC(=O)c1c(NC(=O)c2ccc(F)cc2F)sc2c1CCC(=O)C2       102

---

System: MDA-MB-231 breast
experiment summary: NCI-60 one-dose screen, 48 h
reported conditions: 10 µM unless noted
About 83,000 compounds went through this panel and 20% of them were active in at least one assay; those are over-represented in the sample as a whole. The source made the active and inactive calls. How the source made its calls: active means growth percent below 10; inactive means the rest.
Possible outcomes: yes (active), no (inactive)

> print(dat)
                                    compound        target.desc  classification
 1  COc1cc(O)c2c(c1)[C@H]1O[C@@H]1C[C@H](O)[C@H](O)C(=O)/C=C\C[C@H](C)OC2=O  MDA-MB-231 breast              no
 2  CN1CCN(c2ccc(C(=O)/C=C/c3ccc(Cl)c(C(F)(F)F)c3)cc2)CC1  MDA-MB-231 breast              no
 3  COc1ccc([C@@H]2[C@@H](O)C(=O)N2c2cc(OC)c(OC)c(OC)c2)cc1Cl  MDA-MB-231 breast              no
 4  CCN(CC)c1ccc2cc(C(=O)NCCOCCOCCOCCn3cc(CCC(=O)Nc4ccc(C(=O)c5ccc(NC(=O)OC(C)(C)C)cc5)cc4)nn3)c(=O)oc2c1  MDA-MB-231 breast              no
 5  O=C(COc1ccc(C2SCC(=O)N2c2ccc(F)cc2)cc1)c1ccccc1 (centres undefined)  MDA-MB-231 breast              no
 6     Cc1ccccc1/C=C/c1nn2c(-c3ccoc3C)nnc2s1  MDA-MB-231 breast              no
 7  CS(=O)c1nccc(-c2c(-c3ccc(F)c(OCc4ccccc4)c3)nc3sccn23)n1 (centres undefined)  MDA-MB-231 breast              no
 8  Oc1ccc(CSc2nnc(-c3cnccn3)n2-c2ccccc2)c2cccnc12  MDA-MB-231 breast              no
 9  COc1c([C@@H](CC(C)C)OC(C)=O)ccc2c1C(=O)OCc1cc(C)cc(O)c1O2  MDA-MB-231 breast              no
10  Cc1ccc(-c2cc3nc(C(Cl)Cl)nc(-c4ccccc4)n3n2)cc1  MDA-MB-231 breast              no
11  c1ccc(-c2c(-c3ccccc3)[n+](Cc3ccc4ccccc4c3)c(-c3ccccc3)n2Cc2ccc3ccccc3c2)cc1  MDA-MB-231 breast             yes
12    CC(C)Sc1nc(NC2CC2)c(C#N)c(-c2ccccc2)n1  MDA-MB-231 breast              no
13  COC(=O)c1c(C(=O)OC)c2n(CC(=O)Nc3cccc4cccnc34)c3ccccc3n2c1C(=O)c1ccc(C)cc1  MDA-MB-231 breast              no
14      N/C(=N\c1nc2c(Cl)cccc2s1)C(Cl)(Cl)Cl  MDA-MB-231 breast              no
15  O=C1c2c(c3c4cccnc4[nH]c3c3ccc4ccccc4c23)C(=O)N1CCN1CCOCC1  MDA-MB-231 breast              no
16  COc1ccc(-c2cc(-c3cccc4ccccc34)n3c(n2)nc2ccccc23)cc1  MDA-MB-231 breast              no
17  Nc1nc(N)c2c(n1)NC(c1ccc(Cl)cc1)CC(c1ccc(Nc3nc(NCCO)nc(Nc4ccc(Cl)cc4)n3)cc1)=N2 (centres undefined)  MDA-MB-231 breast              no
18  O=C(CSc1nnc(-c2cccs2)n1-c1ccccc1)Nc1ccc(F)cc1  MDA-MB-231 breast              no
19  CC(C)(C)n1nnnc1C(Nc1nccs1)c1cc2cccc3ccc4cccc1c4c32 (centres undefined)  MDA-MB-231 breast              no

---

Listed below: growth values for each entry.
Test system: HS 578T breast
experiment summary: NCI-60 one-dose screen, 48 h (100 = growth as untreated, 0 = no growth, -100 = all killed)
reported conditions: 10 µM unless noted
Compounds without any hit were thinned out: in the full panel of roughly 83,000, 20% have a hit.
endpoint label: growth (%)

> print(dat)
                                   molecule     target.desc  measured
1  COc1ccc(Cn2cc3c(c2-c2ccccc2)CCCc2cnoc2-3)cc1[N+](=O)[O-]  HS 578T breast      64.3
2  COc1ccc(/C(C)=C(\c2ccc(Cl)cc2)c2ccc(OCCN)cc2)cc1  HS 578T breast        89
3  Nc1c(C(=O)c2ccccc2)sc2nc(-c3cnccn3)cc(-c3cccs3)c12  HS 578T breast      98.8
4       COc1ccc(C(=O)n2cc(C=O)c3ccccc32)cc1  HS 578T breast       101
5  COC[C@@]1(C)CC[C@]2(C)CC[C@]3(C)C(=CC[C@@H]4[C@@]5(C)CCCNC(C)(C)[C@@H]5CC[C@]43C)C2C1 (stereo not given in full)  HS 578T breast      78.5
